This collection of values is drawn from the RepoRT retention time repository (doi:10.1007/s00216-021-03828-0).

experiment: RP, Merck Supelco Ascentis Express C18, 100 × 2.1 mm, 2 µm, 40 °C, 0.35 mL/min, estimated dead time 0.63 min; A: water + 0.1% formic acid, pH 3; B: acetonitrile + 0.1% formic acid, pH 3; gradient (min/%B) 0/5 2/5 17/99.9 20/99.9; conditions: stereoisomer not certain
Class label 1: LC retention time at least 3 min. Class label 0: LC retention time below 3 min.

Observe how each entry below is paired with its result.
In [3]: df
Out[3]:
                                   compound  class_assignment
0                O=C(O)CCC(=O)O [SUCCINATE]           label 0
1        O=C(O)C=Cc1ccc(O)cc1 [4-COUMARATE]           label 1
2       CCCCCCCCC=CCCCCCCCC(=O)O [ELAIDATE]           label 1
3  Cc1cc2nc[nH]c2cc1C [5,6 DIMETHYLBENZIMIDAZOLE]           label 1

Pending compound:
Input: Determine whether this compound has LC retention time no lower than 3 min: NC(Cc1ccccc1)C(=O)O (stereo unspecified) [PHENYLALANINE]
Output: label 0

* * *

Measured LC retention time, listed per entry for reference.
assay: RP, Merck Supelco Ascentis Express C18, 100 × 2.1 mm, 2 µm, 40 °C, 0.25 mL/min, estimated dead time 0.88 min; A: water + 0.1% formic acid, pH 3; B: acetonitrile + 0.1% formic acid, pH 3; gradient (min/%B) 0/5 2/5 17/99.9 20/99.9; conditions: stereoisomer not certain
Reply with just the number (in min).

>>> df
                                   compound  unit_abbrev  test_value
0              CC(=O)NCCc1c[nH]c2ccc(O)cc12          min        4.45
1  CC(=O)OCC(=O)C1CCC2C3CCC4=CC(=O)CCC4(C)C3CCC12C (stereo unspecified) [DEOXYCORTICOSTERONE ACETATE]          min        11.6
2                                Oc1ccccc1O          min        3.05
3                Cn1c(=O)[nH]c2ncn(C)c2c1=O          min        3.33
4  O=C(O)c1cc(=O)c2ccccc2[nH]1 [KYNURENATE]          min           4
5  NC(=O)[C@@H](N)Cc1c[nH]c2ccccc12 [L-TRYPTOPHANAMIDE]          min        2.41
6                    NCCc1c[nH]c2ccc(O)cc12          min        1.35
7         O=C(O)CNC(=O)c1ccccc1 [HIPPURATE]          min        4.54

Input: Quick one: LC retention time of O=C(O)CCCCCCCCCO [10-HYDROXYDECANOATE] ?
Output: 7.49

Input: Recorded LC retention time for CCCCC(N)C(=O)O (stereo unspecified) , please?
Output: 1.3

Input: What LC retention time value was documented for this compound, O=C(O)c1cccnc1C(=O)O [QUINOLINATE] ?
Output: 1.07

* * *

assay: RP, Merck Supelco Ascentis Express C18, 100 × 2.1 mm, 2 µm, 40 °C, 0.2 mL/min, estimated dead time 1.1 min; A: water + 0.1% formic acid, pH 3; B: acetonitrile + 0.1% formic acid, pH 3; gradient (min/%B) 0/5 2/5 17/99.9 20/99.9; details: stereoisomer not certain
Each entry below lists one item and its recorded LC retention time value.

Example entries begin here.
>>> df
                                   molecule       measure_name  test_value
0  O=C(O)Cc1ccc(O)cc1 [P-HYDROXYPHENYLACETATE]  LC retention time    4.99 min
1    OCCc1c[nH]c2ccccc12 [INDOLE-3-ETHANOL]  LC retention time    7.25 min
2  Nc1ncnc2c1ncn2C1OC(CO)C(O)C1O (centres undefined) [ADENOSINE]  LC retention time    1.33 min

The record that follows has no LC retention time shown yet.
Input: Tell me the measured LC retention time of CC(=O)N1CCCC1C(=O)O (centres undefined) [N-ACETYLPROLINE] , please.
Output: 2.77 min

* * *

experiment: RP, Merck Supelco Ascentis Express C18, 100 × 2.1 mm, 2 µm, 40 °C, 0.4 mL/min, estimated dead time 0.55 min; A: water + 0.1% formic acid, pH 3; B: acetonitrile + 0.1% formic acid, pH 3; gradient (min/%B) 0/5 2/5 17/99.9 20/99.9; conditions: stereoisomer not certain
Recorded LC retention time, one value per entry.
Report the figure in min without appending any unit label.

Illustrative cases are given below, each with its answer.
                                   compound       measure_name  test_value
0  NC(Cc1cc(I)c(Oc2ccc(O)c(I)c2)c(I)c1)C(=O)O (centres undefined) [LIOTHYRONINE]  LC retention time        7.03
1     O=C(O)c1ccc(O)cc1 [4-HYDROXYBENZOATE]  LC retention time        2.59
2  CCC=CCC=CCC=CCC=CCC=CCC=CCCC(=O)O [DOCOSAHEXAENOATE]  LC retention time        14.5

// switching to the query compound
Input: Look at this compound and give its reported LC retention time. O=C(O)Cc1ccc(O)cc1 [P-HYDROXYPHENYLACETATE]
Output: 3.36

* * *

// values below are reported LC retention time
experiment: RP, Merck Supelco Ascentis Express C18, 100 × 2.1 mm, 2 µm, 39 °C, 0.3 mL/min, estimated dead time 0.73 min; A: water + 0.1% formic acid, pH 3; B: acetonitrile + 0.1% formic acid, pH 3; gradient (min/%B) 0/5 2/5 17/99.9 20/99.9; details: stereoisomer not certain
Write the answer as a number in min, unit excluded.

Input: Query (compound): O=C(O)Cc1cc(O)ccc1O [HOMOGENTISATE] ; field requested: LC retention time
Output: 1.64

Input: Given the compound CC(C)CC(N)C(=O)O (centres undefined) , what is its reported LC retention time?
Output: 0.98

Input: What value of LC retention time has been recorded for this entry: Cn1cnc2c(ncn2C2OC(CO)C(O)C2O)c1=N (centres undefined)
Output: 1.31

Input: LC retention time lookup needed for CCCCCCCC(=O)O [CAPRYLATE] , thanks.
Output: 9.52

Input: Could you share which LC retention time value was measured for CC(=O)NC(Cc1ccccc1)C(=O)O (centres undefined) ?
Output: 5.37

Input: What does the data say about its LC retention time? Entry: CC(CC(=O)O)CC(=O)O [METHYGLUTARATE]
Output: 2.6

* * *

test: RP, Merck Supelco Ascentis Express C18, 100 × 2.1 mm, 2 µm, 39 °C, 0.3 mL/min, estimated dead time 0.73 min; A: water + 0.1% formic acid, pH 3; B: acetonitrile + 0.1% formic acid, pH 3; gradient (min/%B) 0/5 2/5 17/99.9 20/99.9; conditions: stereoisomer not certain
// values below are reported LC retention time
Your answer should be a plain number; it is taken to be in min.

>>> df
                                   compound       measure_name  test_value
0  CC(CCCC(C)(C)O)C1CCC2C3CC=C4CC(O)CCC4(C)C3CCC12C (centres undefined) [25-HYDROXYCHOLESTEROL]  LC retention time        17.8
1  CSCC1OC(n2cnc3c(N)ncnc32)C(O)C1O (centres undefined)  LC retention time        2.98
2           O=C(O)CCCCCCCCC(=O)O [SEBACATE]  LC retention time        6.92
3                       OCCc1c[nH]c2ccccc12  LC retention time        6.22
4  CC12CCC(=O)C=C1CCC1C2CCC2(C)C1CCC2(O)C(=O)CO (centres undefined) [CORTEXOLONE]  LC retention time        8.25

Now look at this one.
Input: So what's the measured LC retention time for this one? CCCCCCCCC=CCCCCCCCC(=O)O [ELAIDATE]
Output: 16.8

* * *

assay: RP, Merck Supelco Ascentis Express C18, 100 × 2.1 mm, 2 µm, 40 °C, 0.25 mL/min, estimated dead time 0.88 min; A: water + 0.1% formic acid, pH 3; B: acetonitrile + 0.1% formic acid, pH 3; gradient (min/%B) 0/5 2/5 17/99.9 20/99.9; conditions: stereoisomer not certain
Exam item: assign 1.0 to entries whose LC retention time is below 5 min and 0.0 to entries at or above 5 min. Note that a value of exactly 5 min receives 0.0.

Sample answers from the record:
>>> df
                                   compound  class_assignment
0       CC(CC(=O)O)CC(=O)O [METHYGLUTARATE]               1.0
1           CCCCCCCCCCCCCC(=O)O [MYRISTATE]               0.0
2                          c1ncc2[nH]cnc2n1               1.0
3                       OCCc1c[nH]c2ccccc12               0.0
4  CC(O)(CCO)CC(=O)[O-] (centres undefined) [MEVALONATE]               1.0

Input: Please check: LC retention time for CC(=O)c1ccc(O)cc1O [2',4'-DIHYDROXYACETOPHENONE] , strictly under 5 min or not?
Output: 0.0

Input: Item `Cc1cc2nc[nH]c2cc1C` : LC retention time beneath 5 min, strictly?
Output: 1.0
